- Tested on: α7 integrin (LacZ reporter in α7βgal+/− myoblasts)
- PROTOCOL_SUMMARY: Myoblast α7+/LacZ integrin FDG assay (Burkin assay in myoblasts, 96-well)
- Format: cell-based, mouse
- RUN_PARAMETERS: Mus musculus, Myoblast, 48 h; 1 uM; α7+/LacZ myoblasts, 96-well; read-out: Burkin Assay in Myoblasts, value relative to DMSO
Provide the recorded fold induction at 1 µM for the entries that follow.
One number for each entry.

Before answering, review these 4 worked examples.
compound=COc1ccc(NC(=O)c2ccc3nc(C)sc3c2)cc1 measured_attribute="fold induction at 1 µM" result_number=1.15
compound="CCS(=O)(=O)N1CCN(c2ccc([N+](=O)[O-])c(NCC3CCCO3)c2)CC1 (centres unmarked)" measured_attribute="fold induction at 1 µM" result_number=0.8
compound="CCc1ccc(N(C(=O)c2snc(C(N)=O)c2N)C(C(=O)NC2CCCC2)c2ccco2)cc1 (centres unmarked)" measured_attribute="fold induction at 1 µM" result_number=0.971
compound=O=C(NCCc1ccc(F)cc1)N[C@@H](Cc1ccccc1)C(=O)O measured_attribute="fold induction at 1 µM" result_number=1.3

Look up fold induction at 1 µM of `CC1(C)Cc2c(ccc3ccccc23)C(=O)N1` and report it. 1.08
